# Assay overview: Stability of DNPs by DLS after storage at 5° C.
# Type: physicochemical
# Assay setup: after 19 days at 5° C.; IAJD 4.0 mg/mL + Luc-mRNA 0.1 mg/mL, acetate buffer
Decision: Size (d, nm) compared against 100 nm; not below it gives fulfilled, below it gives not fulfilled.

Identify whether the reported Size (d, nm) of the following compound is 100 nm or greater: CCCCCCCCCCCCCCCCOc1cc(COC(=O)CCCN2CCN(C)CC2)cc(OCCCCCCCCCCCCCCC)c1 fulfilled

What would you report for CCCCCCCCCCCCCCCOc1cc(COC(=O)CCCN2CCN(C)CC2)cc(OCCCCCCCCCCCCCC)c1 ? fulfilled

Do the same for CCCCCCCCCCCCCCOc1cc(COC(=O)c2cc(OCCOCCOCCCC(=O)CCCN3CCCCC3)c(OCCOCCOCCOCc3ccccc3)c(OCCOCCOCCOC(=O)CCCN3CCCCC3)c2)cc(OCCCCCCCCCCC)c1 please not fulfilled

Can you handle CCCCCCCCCCCOc1cc(COC(=O)c2cc(OCCOCCOCCCC(=O)CCCN3CCCCC3)c(OCCOCCOCCOCc3ccccc3)c(OCCOCCOCCOC(=O)CCCN3CCCCC3)c2)cc(OCC(CC)CCCC)c1 (centres unmarked) next? not fulfilled

Entry CCCCCCCCCCCCCCCOc1cc(COC(=O)c2cc(OCCOCCOCCCC(=O)CCCN3CCCCC3)c(OCCOCCOCCOCc3ccccc3)c(OCCOCCOCCOC(=O)CCCN3CCCCC3)c2)cc(OCCCCCCCCCCC)c1 please not fulfilled

Same lookup for CCCCCCCCCCCCCCCOc1cc(COC(=O)CCCN2CCN(CCO)CC2)cc(OCCCCCCCCCCCCCC)c1 , please. fulfilled

Entry CCCCCCCCCCCCCCCCCOc1cc(COC(=O)c2cc(OCCOCCOCCCC(=O)CCCN3CCCCC3)c(OCCOCCOCCOCc3ccccc3)c(OCCOCCOCCOC(=O)CCCN3CCCCC3)c2)cc(OCCCCCCCCCCC)c1 please not fulfilled

Further, for CCCCCCCCCCCCCCCCOc1cc(COC(=O)CCCN2CCN(CCO)CC2)cc(OCCCCCCCCCCCCCCC)c1 ? fulfilled

###

# Assay overview: DLS size of dendrimersomes assembled from glycerol-JDs in water at different concentrations
# Assay type: physicochemical
# Assay setup: JD 0.05 mg·mL−1 in water; size distribution by intensity
Readout name: Dh (nm)
Give the number; nm is assumed, so skip it.

Reported Dh (nm) for CCCCCCCCCCCCOc1cc(OCCCCCCCCCCCC)cc(C(=O)OCC(COC(=O)C(C)(COC(=O)c2cc(OCCOCCOCCOC)c(OCCOCCOCCOC)c(OCCOCCOCCOC)c2)COC(=O)c2cc(OCCOCCOCCOC)c(OCCOCCOCCOC)c(OCCOCCOCCOC)c2)OC(=O)c2cc(OCCCCCCCCCCCC)cc(OCCCCCCCCCCCC)c2)c1 (racemic) [Compound 1rac, (3,5)-12G1-GC-(rac)-BMPA-(3,4,5)-3EO-G1] : what is it? 109

Would you kindly repeat that for CCCCCCCCCCCCOc1cc(OCCCCCCCCCCCC)cc(C(=O)OCC(C)(COC(=O)c2cc(OCCCCCCCCCCCC)cc(OCCCCCCCCCCCC)c2)C(=O)OC(COC(=O)c2cc(OCCOCCOCCOC)c(OCCOCCOCCOC)c(OCCOCCOCCOC)c2)COC(=O)c2cc(OCCOCCOCCOC)c(OCCOCCOCCOC)c(OCCOCCOCCOC)c2)c1 ? 102
